Biological target: Full-length wild type HIV-1 integrase (SF1) (Human immunodeficiency virus type 1 group M subtype B, UniProt P04585)
Construct: made in house; host or cells: E. coli BL21 (DE3)
Experiment: Integrase strand-transfer scintillation proximity assay
Type: biochemical
Settings: strand-transfer SPA, 246 nM integrase, 50 nM host DNA, 37° C., 50 min; read-out: IC50
I'd appreciate it if you could supply pIC50 values for the items below.
# pIC50 = -log10(concentration in molar units)

Task: Looking for the measured pIC50 of CN(CCc1cn(Cc2ccc(F)cc2)c2cnc3c(c12)CCN(O)C3=O)C1CCOCC1 , can you help?
Output: 7.68

Task: Which pIC50 is reported for this molecule? N#Cc1cccc(Cn2ccc3c4c(ncc32)C(=O)N(O)CC4)c1
Output: 6.25

Task: So what does the record say about pIC50 for CC(C)COCCOCc1cn(Cc2ccc(F)cc2)c2cnc3c(c12)CCN(O)C3=O ?
Output: 7.80

Task: Entry CCCCOCCOCc1cn(Cc2ccc(F)cc2)c2cnc3c(c12)CCN(O)C3=O : reported pIC50 = ?
Output: 7.80

Task: Can you look up the measured pIC50 of COC(C)(C)CCc1cn(Cc2ccc(F)cc2)c2cnc3c(c12)CCN(O)C3=O for me?
Output: 7.85

Task: Which value of pIC50 has been reported for O=c1c2ncc3c(c(COCC4CCC4)cn3Cc3ccc(F)cc3)c2ccn1O in the records?
Output: 7.23

Task: Recorded pIC50 of COC[C@H]1CCCN1C(=O)c1cn(Cc2ccc(F)cc2)c2cnc3c(c12)CCN(O)C3=O , please.
Output: 7.44

Task: Which value of pIC50 has been reported for O=C1c2ncc3c(c(CCNCC(F)(F)F)cn3Cc3ccc(F)cc3)c2CCN1O in the records?
Output: 7.85

Task: What does the record list as pIC50 for O=C1c2ncc3c(c(COCCOc4ccccc4)cn3Cc3ccc(F)cc3)c2CCN1O ?
Output: 7.82

Task: Entry O=C1c2ncc3c(c(CN4CCCC(F)(F)C4)cn3Cc3ccc(F)cc3)c2CCN1O has what pIC50?
Output: 7.99

Task: Give its pIC50 value. Item: O=C1c2ncc3c(c(CCN4CCOCC4)cn3Cc3ccc(F)cc3)c2CCN1O
Output: 7.92

Task: What value of pIC50 has been recorded for this entry: COc1cccc(CCOCc2cn(Cc3ccc(F)cc3)c3cnc4c(c23)CCN(O)C4=O)c1
Output: 7.89

Task: # input molecule: COCCN(Cc1cn(Cc2ccc(F)cc2)c2cnc3c(c12)CCN(O)C3=O)C(C)(C)C ; wanted: its pIC50
Output: 7.61

Task: Query (molecule): CN1CCN(CCc2cn(Cc3ccc(F)cc3)c3cnc4c(c23)CCN(O)C4=O)CC1=O ; field requested: pIC50
Output: 7.92

Task: Report pIC50 for O=C1c2ncc3c(c(CN4CCCCCC4)cn3Cc3ccc(F)cc3)c2CCN1O please.
Output: 7.42

Task: What measured pIC50 goes with O=C1c2ncc3c(c(CNCC(F)F)cn3Cc3ccc(F)cc3)c2CCN1O ?
Output: 8.10

Task: GET /values?readout=pIC50&item= O=C1c2ncc3c(c(CCCOCCN4CCOCC4)cn3Cc3ccc(F)cc3)c2CCN1O
Output: 7.68
